Where these numbers come from: patent US20260200926A1

Recorded pEC50 by entry
Biological target: Human TREM2 (Homo sapiens, UniProt Q9NZC2)
Construct: expressed in transfected cells
Sequence (Q9NZC2 19-230): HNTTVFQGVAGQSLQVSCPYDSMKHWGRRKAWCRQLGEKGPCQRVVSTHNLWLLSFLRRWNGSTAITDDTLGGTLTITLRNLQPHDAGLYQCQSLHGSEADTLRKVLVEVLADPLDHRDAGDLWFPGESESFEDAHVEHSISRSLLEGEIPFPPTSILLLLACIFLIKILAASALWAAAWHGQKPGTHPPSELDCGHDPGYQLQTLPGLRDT
Sequence (O43914 22-113 partner): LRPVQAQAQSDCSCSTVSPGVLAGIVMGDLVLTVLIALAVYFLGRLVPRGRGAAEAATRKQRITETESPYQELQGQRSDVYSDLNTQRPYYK
Assay: Human TREM2 activity: cellular phosphorylation of Syk (AlphaLISA SureFire Ultra p-SYK) in HEK293/DAP12+TREM2 stable cell line
Format: cell-based
Settings: phospho-Syk AlphaLISA signal, HEK293/DAP12+TREM2 cells; concentration giving 50% of maximal response; read-out: EC50
pEC50: −log10 of the molar value.

Would you please look over these solved cases?
compound="Cc1nc2c(-c3ccc(C(F)(F)F)cc3F)nc(N3CCOC(c4cnn(C)c4)C3)nc2c(=O)n1C (stereo not drawn)" recordedresult="6.00 to 7.00"
compound="Cc1nc2c(-c3ccc(Cl)cc3F)nc(N3CCOC(c4cnn(C)n4)C3)nc2c(=O)n1C (stereo not drawn)" recordedresult="8.00 to 9.00"
compound="Cc1nc2c(-c3ccc(Cl)cc3F)nc([C@@H]3CCO[C@H](c4cnn(C5CC5)c4)C3)cc2c(=O)n1C (single isomer, unassigned) [Example 140A]" recordedresult="6.00 to 7.00"

Reported pEC50 for Cc1cc([C@H]2CN(c3nc(-c4ccc(C(F)(F)F)cc4F)c4nc(C)n(C)c(=O)c4n3)C[C@@H](C)O2)ccn1 (single isomer, unassigned) [Example 179B] : what is it?
> 9.00

Reported pEC50 for Cc1nc2c(-c3cc(F)c(F)cc3F)nc(N3C[C@@H](c4cnn(C)c4)OC(C)(C)C3)nc2c(=O)n1C (single isomer, unassigned) [Example 101A] : what is it?
7.00 to 8.00

Reported pEC50 for Cc1nc2c(-c3ccc(C(F)(F)F)nc3)nc(N3CCO[C@@H](c4cnn(C)c4)C3)cc2c(=O)n1C (single isomer, unassigned) [Example 127A] : what is it?
6.00 to 7.00

Reported pEC50 for Cc1cc([C@H]2CN(c3cc4c(=O)n(C)c(C)nc4c(-c4ccc(F)cc4F)n3)CCO2)ccn1 (single isomer, unassigned) [Example 136B] : what is it?
6.00 to 7.00

Reported pEC50 for Cc1nc2c(-c3cc(F)c(F)cc3F)nc(N3CCO[C@H](c4cnn(C)c4)C3)nc2c(=O)n1C (single isomer, unassigned) [Example 27A] : what is it?
7.00 to 8.00

Reported pEC50 for Cc1nc2c(-c3cc(F)c(F)cc3F)nc(N3CCO[C@@H](c4cnn(C)c4)C3)cc2c(=O)n1C (single isomer, unassigned) [Example 130A] : what is it?
7.00 to 8.00

* * *

Biological target: Human TREM2 (Homo sapiens, UniProt Q9NZC2)
Construct: expressed in transfected cells
Experiment: Human TREM2 activity: cellular phosphorylation of Syk (AlphaLISA SureFire Ultra p-SYK) in HEK293/DAP12+TREM2 stable cell line
Type: cell-based
Details: HEK293; maximal response relative to reference agonist example 1B (remaining examples); read-out: Emax
Recorded Emax by entry

molecule="Cc1nc2c(-c3ccc(Cl)cc3F)nc(N3CCOC(c4cn(C)cn4)C3)nc2c(=O)n1C (stereo not drawn) [Example 82]" experimentalsystem="Human TREM2 (Homo sapiens, UniProt Q9NZC2)" readoutname=Emax recordedresult="75 to 110%"
molecule="Cc1cc([C@@H]2CN(c3cc4c(=O)n(C)c(C)nc4c(-c4ccc(C(F)(F)F)nc4)n3)C[C@H](C)O2)ccn1 (single isomer, unassigned) [Example 199A]" experimentalsystem="Human TREM2 (Homo sapiens, UniProt Q9NZC2)" readoutname=Emax recordedresult="< 75%"

Reported Emax for Cn1c(C(F)(F)F)nc2c(-c3ccc(F)cc3F)nc([C@H]3CCO[C@@H](c4cnn(C5CC5)c4)C3)cc2c1=O (single isomer, unassigned) [Example 197B] : what is it?
< 75%

Reported Emax for Cc1nc2c(-c3ccc(Cl)cc3F)cc(N3CCOC(c4cnn(C)c4)C3)nc2c(=O)n1C (stereo not drawn) [Example 104] : what is it?
75 to 110%

Reported Emax for Cc1cc(C2CN(c3nc(-c4ccc(Cl)cc4F)c4nc(C)n(C)c(=O)c4n3)CCO2)ccn1 (stereo not drawn) [Example 3] : what is it?
75 to 110%

Reported Emax for Cc1nc2c(-c3ccc(Cl)cc3F)nc(N3CCC[C@H](Oc4cnn(C)c4)C3)nc2c(=O)n1C [Example 75] : what is it?
< 75%

* * *

Target: Human TREM2 (Homo sapiens, UniProt Q9NZC2)
Construct: expressed in transfected cells
Assay: Human TREM2 activity: cellular phosphorylation of Syk (AlphaLISA SureFire Ultra p-SYK) in HEK293/DAP12+TREM2 stable cell line
Type: cell-based
Conditions: phospho-Syk AlphaLISA signal, HEK293/DAP12+TREM2 cells; concentration giving 50% of maximal response; read-out: EC50
readoutName: EC50

Would you please look over these solved cases?
compound="Cc1nc2c(-c3ccc(F)cc3C#N)nc(N3C[C@@H](c4cnn(C5CC5)c4)O[C@@H](C)C3)cc2c(=O)n1C (single isomer, unassigned) [Example 201A]" readoutname=EC50 recordedresult="> 1 µM"
compound="Cc1cc([C@@H]2CN(c3cc4c(=O)n(C)c(C)nc4c(-c4ccc(F)cc4F)n3)CC(F)(F)O2)ccn1 (single isomer, unassigned) [Example 171A]" readoutname=EC50 recordedresult="0.001 to 0.01 µM"
compound="Cc1nc2c(-c3ccc(F)cc3F)nc(N3C[C@@H](c4cnn(C5CC5)c4)O[C@@H](C)C3)nc2c(=O)n1C (single isomer, unassigned) [Example 177A]" readoutname=EC50 recordedresult="0.01 to 0.1 µM"
compound="Cc1cc([C@@H]2CN(c3nc(-c4ccc(F)cc4F)c4nc(C(F)(F)F)n(C)c(=O)c4n3)C[C@H](C)O2)ccn1 (single isomer, unassigned) [Example 191A]" readoutname=EC50 recordedresult="< 0.001 µM"
compound="Cc1nc2c(-c3ccc(Cl)cc3F)nc(N3CCN(CC(F)F)C(c4cnn(C)c4)C3)nc2c(=O)n1C (stereo not shown) [Example 32]" readoutname=EC50 recordedresult="0.01 to 0.1 µM"
compound="Cc1nc2c(-c3ccc(Cl)cc3F)nc(N3C[C@H](c4cnn(C)c4)OC4(CCC4)C3)cc2c(=O)n1C (single isomer, unassigned) [Example 151B]" readoutname=EC50 recordedresult="0.1 to 1 µM"
compound="Cc1cc([C@@H]2CN(c3cc4c(=O)n(C)c(C)nc4c(-c4ccc(Cl)cc4F)n3)CCO2)ccn1 (single isomer, unassigned) [Example 135A]" readoutname=EC50 recordedresult="0.001 to 0.01 µM"
compound="Cc1nc2c(-c3ccc(C(F)(F)F)nc3)nc(N3C[C@H](c4cnn(C)c4)OC(C)(C)C3)nc2c(=O)n1C (single isomer, unassigned) [Example 102B]" readoutname=EC50 recordedresult="> 1 µM"
compound="Cc1nc2c(-c3ccc(Cl)cc3F)nc(N3C[C@H](c4cnn(C)n4)OC(C)(C)C3)cc2c(=O)n1C (single isomer, unassigned) [Example 147B]" readoutname=EC50 recordedresult="0.1 to 1 µM"
compound="Cc1nc2c(nc(N3CCO[C@@H](c4cnn(C)c4)C3)nc2[C@H]2CC[C@H](C)CC2)c(=O)n1C (single isomer, unassigned) [Example 71B]" readoutname=EC50 recordedresult="0.01 to 0.1 µM"

Reported EC50 for Cc1nc2c(-c3ccc(F)cc3F)nc(N3C[C@H](c4cnn(C)c4)OC(F)(F)C3)cc2c(=O)n1C (single isomer, unassigned) [Example 166B] : what is it?
0.01 to 0.1 µM

Reported EC50 for Cc1nc2c(-c3ccc(C(F)(F)F)cc3F)nc(N3CCO[C@H](c4cnn(C)c4)C3)cc2c(=O)n1C (single isomer, unassigned) [Example 126B] : what is it?
0.1 to 1 µM

Reported EC50 for Cc1nc2c(-c3ccc(Cl)cc3F)nc(N3C[C@H](c4cnn(C)c4)OC4(CC4)C3)c(F)c2c(=O)n1C (single isomer, unassigned) [Example 173B] : what is it?
0.01 to 0.1 µM

* * *

Target: Human TREM2 (Homo sapiens, UniProt Q9NZC2)
Construct: expressed in transfected cells
Test: Human TREM2 activity: cellular phosphorylation of Syk (AlphaLISA SureFire Ultra p-SYK) in HEK293/DAP12+TREM2 stable cell line
Type: cell-based
Details: phospho-Syk AlphaLISA signal, HEK293/DAP12+TREM2 cells; concentration giving 50% of maximal response; read-out: EC50
pEC50: −log10 of the molar value.
Recorded pEC50 by entry

Would you please look over these solved cases?
compound=Cc1nc2c(-c3ccc(Cl)cc3F)nc(N3CCc4cncnc4CC3)nc2c(=O)n1C readoutname=pEC50 recordedresult="< 6.00"
compound="Cc1cc([C@@H]2CN(c3nc(-c4cc(F)c(F)cc4F)c4nc(C)n(C)c(=O)c4n3)CCO2)ccn1 (single isomer, unassigned) [Example 123A]" readoutname=pEC50 recordedresult="8.00 to 9.00"

// switching to the query compound
Request - read-out pEC50 | tested on Human TREM2 (Homo sapiens, UniProt Q9NZC2) | compound Cc1nc2c(-c3cc(F)c(F)cc3F)nc([C@@H]3CCO[C@H](c4cnn(C)c4)C3)nc2c(=O)n1C (single isomer, unassigned) [Example 38A]
6.00 to 7.00
